Origin of the recorded values: paper PMC9352680

Experimental System: T1, PUF4 RNA-binding domain (Saccharomyces cerevisiae, UniProt P25339 537-888)
T1 sequence: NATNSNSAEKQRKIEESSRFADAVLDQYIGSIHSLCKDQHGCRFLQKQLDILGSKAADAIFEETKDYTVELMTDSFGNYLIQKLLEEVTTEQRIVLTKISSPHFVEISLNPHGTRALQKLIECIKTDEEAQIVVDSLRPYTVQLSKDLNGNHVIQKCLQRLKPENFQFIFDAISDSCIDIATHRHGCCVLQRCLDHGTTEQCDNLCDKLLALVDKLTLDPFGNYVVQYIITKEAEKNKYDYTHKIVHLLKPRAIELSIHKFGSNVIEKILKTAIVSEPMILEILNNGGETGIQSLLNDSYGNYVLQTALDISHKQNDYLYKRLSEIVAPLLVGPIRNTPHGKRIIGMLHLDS
Assay Overview: Mg; RNA-MaP; 20 mM Na-HEPES pH 7.4, 30 mM KOAc, 0.75 mM MgCl2, 0.1% Tween-20, 5% glycerol, 0.1 mg/mL BSA, 2 mM DTT; 25 C; 0.0125-409.6 nM protein
Measurement Context: tags: N-His6-TEV cleaved; C-SNAP kept, Cy3B-labelled; label: tethered on chip by stalled RNA polymerase
Reported values of Kd for individual entries
Property: Kd (nM)

Ic_S2_P3E.1_K3.1_C3.1_H3.1_A3.1_[T5G]_[A6C]_F3.1_[T7C]_[A8G]_T3.1 (ssRNA) RNA: UUUGAUUAAUAUGAUAUCGUUCUUUCUUGUAGCCGUUCUUUCUCGAUAUCAUAUUAAUCUUU	996
Id_ii_S4_P4E.2_K4.1_C4.2_[C-2T]_[T-1A]_H4.1_A4.1_F4.1_T4.2_[G10A]_[T11C] (ssRNA) RNA: UUUGACAACUGAUCGUUCUUUCUUAUGUAUAUUAACUUCUUUCUCGAUCAGUUGUCUUU	1.15
Id_ii_S2_P5E.3_K5.2_C5.2_[C-2G]_H5.2_A5.1_F5.1_T5.2_[T11C]_[A12T] (ssRNA) RNA: UUUGAUUAAUAUGAUAUCGUUCUUUCUGUUAUAUUAUUACUUUCUUUCUCGAUAUCAUAUUAAUCUUU	27.5
UCUCUUUGUAUAUCGUCUCUU (ssRNA) [Ib_S1_P4E.1_K4.1_C4.1_H4.1_A4.1_F4.1_[T8C]_[A9G]_T4.1]	26.1
